test system: human skin; test: Skin irritation test of active ingredient (patch method, CTFA guidelines); format: in vivo; details: content 0.5%; 20 subjects; 24 hours patch; reddened and swollen
endpoint: Test result (number of subject) (++)
Reply briefly: the number, and no unit.

input: Entry under review: NCCNCCNCCN [Trientine, Triethylenetetramine, reference compound] . Reported Test result (number of subject) (++)?
output: 0

input: Entry under review: `O=C(O)c1ccc(N2CCN(c3ccc(C(=O)O)cc3)CCN(c3ccc(C(=O)O)cc3)CCN(c3ccc(C(=O)O)cc3)CC2)cc1` . Reported Test result (number of subject) (++)?
output: 0

input: Entry under review: `O=C(O)CN1CCCN(CC(=O)O)CCN(CC(=O)O)CCCN(CC(=O)O)CC1` . Reported Test result (number of subject) (++)?
output: 0

input: Entry under review: `O=C(O)c1ccc(N(CCN(CCN(c2ccc(C(=O)O)o2)c2ccc(C(=O)O)o2)c2ccc(C(=O)O)o2)CCN(c2ccc(C(=O)O)o2)c2ccc(C(=O)O)o2)o1` . Reported Test result (number of subject) (++)?
output: 0

input: Entry under review: `O=C(O)c1cncc(N2CCN(c3cncc(C(=O)O)c3)CCN(c3cncc(C(=O)O)c3)CCN(c3cncc(C(=O)O)c3)CC2)c1` . Reported Test result (number of subject) (++)?
output: 0

input: Entry under review: `O=C(O)c1ccc(N(CCN(CCN(c2ccc(C(=O)O)cc2)c2ccc(C(=O)O)cc2)c2ccc(C(=O)O)cc2)CCN(c2ccc(C(=O)O)cc2)c2ccc(C(=O)O)cc2)cc1` . Reported Test result (number of subject) (++)?
output: 0

input: Entry under review: `O=C(O)CN1CCN(CC(=O)O)CCN(CC(=O)O)CCN(CC(=O)O)CC1` . Reported Test result (number of subject) (++)?
output: 0

input: Entry under review: `C1CNCCNCCNCCN1` . Reported Test result (number of subject) (++)?
output: 0

input: Entry under review: `O=C(O)c1ccc(N2CCCN(c3ccc(C(=O)O)o3)CCN(c3ccc(C(=O)O)o3)CCCN(c3ccc(C(=O)O)o3)CC2)o1` . Reported Test result (number of subject) (++)?
output: 0

input: Entry under review: `O=C(O)c1ccc(N2CCCN(c3ccc(C(=O)O)cc3)CCN(c3ccc(C(=O)O)cc3)CCCN(c3ccc(C(=O)O)cc3)CC2)cc1` . Reported Test result (number of subject) (++)?
output: 0

input: Entry under review: `O=C(O)c1cncc(N2CCCN(c3cncc(C(=O)O)c3)CCN(c3cncc(C(=O)O)c3)CCCN(c3cncc(C(=O)O)c3)CC2)c1` . Reported Test result (number of subject) (++)?
output: 0

input: Entry under review: `O=C(O)CN(CCN(CCN(CC(=O)O)CC(=O)O)CC(=O)O)CCN(CC(=O)O)CC(=O)O` . Reported Test result (number of subject) (++)?
output: 0

input: Entry under review: `O=C(O)c1ccc(N2CCN(c3ccc(C(=O)O)o3)CCN(c3ccc(C(=O)O)o3)CCN(c3ccc(C(=O)O)o3)CC2)o1` . Reported Test result (number of subject) (++)?
output: 0
